This collection of values is drawn from patent US20030022158A1.

System: human IgG antibodies in human serum samples
Protocol description: EIA of human antibody reactivities to overlapping synthetic peptides of TTV ORF1 and ORF2 (Tables 2 and 3)
Format: binding
Measurement setup: human serum sample 2, negative for TTV DNA by PCR; serum diluted 1:100; OD over 0.500 considered positive
Endpoint label: optical density (OD) at 405 nm
Remember to follow the number with its unit.

Recorded optical density (OD) at 405 nm (substance 22: overlapping synthetic peptide of TTV ORF1 (TATTTTYAYPGTNR) [compound 22] ): 0.07 OD

Recorded optical density (OD) at 405 nm (substance KINTMPPFLDTELTAPS (Peptide Immunogen) [compound 18, overlapping synthetic peptide of TTV ORF1] ): 0.09 OD

Recorded optical density (OD) at 405 nm (substance 20: overlapping synthetic peptide of TTV ORF1 (TATTTTYAYPGTNRPP) [compound 20] ): 0.06 OD

Recorded optical density (OD) at 405 nm (substance DQNIHMNARLLIRSPFT (Peptide Immunogen) [compound 50, overlapping synthetic peptide of TTV ORF1] ): 0.09 OD
